target: FGFR1 (UP) (Homo sapiens (Human), UniProt P11362); assay: FGFR Enzymatic Assay, FGFR1 un-phosphorylated
Sequence (P11362 22-822): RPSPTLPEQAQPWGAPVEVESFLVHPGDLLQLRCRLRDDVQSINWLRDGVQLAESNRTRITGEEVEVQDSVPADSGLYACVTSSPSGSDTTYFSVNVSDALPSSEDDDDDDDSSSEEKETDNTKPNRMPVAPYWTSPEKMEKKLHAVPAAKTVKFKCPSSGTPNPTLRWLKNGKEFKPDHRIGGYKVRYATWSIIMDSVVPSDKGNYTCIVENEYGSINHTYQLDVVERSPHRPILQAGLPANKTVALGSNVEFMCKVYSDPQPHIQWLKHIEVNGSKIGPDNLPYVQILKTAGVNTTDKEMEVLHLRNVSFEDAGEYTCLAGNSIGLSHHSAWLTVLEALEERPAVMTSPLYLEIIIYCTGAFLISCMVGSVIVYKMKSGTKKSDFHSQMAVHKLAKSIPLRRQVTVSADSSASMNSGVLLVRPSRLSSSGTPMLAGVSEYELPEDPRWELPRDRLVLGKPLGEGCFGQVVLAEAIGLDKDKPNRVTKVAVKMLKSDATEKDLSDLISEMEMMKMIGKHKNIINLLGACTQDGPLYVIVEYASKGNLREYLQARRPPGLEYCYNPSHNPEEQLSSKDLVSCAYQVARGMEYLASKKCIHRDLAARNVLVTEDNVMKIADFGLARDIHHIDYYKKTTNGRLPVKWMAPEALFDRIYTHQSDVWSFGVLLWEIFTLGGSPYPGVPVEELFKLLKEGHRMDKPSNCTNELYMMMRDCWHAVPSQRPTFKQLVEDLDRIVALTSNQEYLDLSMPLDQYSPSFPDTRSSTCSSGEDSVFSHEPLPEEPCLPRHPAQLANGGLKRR
MEASUREMENT KIND: IC50

Some entries whose results are on file:
CCOC(=O)N1C[C@@H](C)N(c2ncc3[nH]nc(-c4ccc(N5CCN[C@H](C)C5)nc4)c3n2)[C@@H](C)C1	500 to 2000 nM
C[C@@H]1CN(c2ccc(-c3n[nH]c4cnc(N5[C@@H]6CC[C@H]5CN(C(=O)C5CC5)C6)nc34)cn2)CCN1	500 to 2000 nM
Cn1cc(-c2n[nH]c3cnc(N4CCn5cnc(C(F)(F)F)c5C4)nc23)cn1	100 to 500 nM

Data request: Provide measured IC50 value, entry: C[C@@H]1CN(c2ccc(-c3n[nH]c4cnc(N5[C@H](C)CN(C(=O)N6CCC(F)C6)C[C@@H]5C)nc34)cn2)CCN1 (some centres unmarked)
Data returned: 500 to 2000 nM

Data request: Provide measured IC50 value, entry: CCN1CC2CCC(C1=O)N2c1ncc2[nH]nc(-c3cnn(C)c3)c2n1 (centres unmarked)
Data returned: 100 to 500 nM

Data request: Provide measured IC50 value, entry: Cn1cc(-c2n[nH]c3cnc(N4C5CCC4C(=O)N(CCF)C5)nc23)cn1 (centres unmarked)
Data returned: 100 to 500 nM

Data request: Provide measured IC50 value, entry: `C[C@@H]1CN(c2ccc(-c3n[nH]c4cnc(N5C6CCC5CC6)nc34)cn2)CCN1`
Data returned: 500 to 2000 nM

Data request: Provide measured IC50 value, entry: CN1CC2CCC(C1=O)N2c1ncc2[nH]nc(-c3cnn(-c4ccc(C#N)c(F)c4)c3)c2n1 (centres unmarked)
Data returned: 100 to 500 nM

---

Molecular target: FGFR3 (Homo sapiens, UniProt P22607)
Sequence (P22607 23-806 limits assumed): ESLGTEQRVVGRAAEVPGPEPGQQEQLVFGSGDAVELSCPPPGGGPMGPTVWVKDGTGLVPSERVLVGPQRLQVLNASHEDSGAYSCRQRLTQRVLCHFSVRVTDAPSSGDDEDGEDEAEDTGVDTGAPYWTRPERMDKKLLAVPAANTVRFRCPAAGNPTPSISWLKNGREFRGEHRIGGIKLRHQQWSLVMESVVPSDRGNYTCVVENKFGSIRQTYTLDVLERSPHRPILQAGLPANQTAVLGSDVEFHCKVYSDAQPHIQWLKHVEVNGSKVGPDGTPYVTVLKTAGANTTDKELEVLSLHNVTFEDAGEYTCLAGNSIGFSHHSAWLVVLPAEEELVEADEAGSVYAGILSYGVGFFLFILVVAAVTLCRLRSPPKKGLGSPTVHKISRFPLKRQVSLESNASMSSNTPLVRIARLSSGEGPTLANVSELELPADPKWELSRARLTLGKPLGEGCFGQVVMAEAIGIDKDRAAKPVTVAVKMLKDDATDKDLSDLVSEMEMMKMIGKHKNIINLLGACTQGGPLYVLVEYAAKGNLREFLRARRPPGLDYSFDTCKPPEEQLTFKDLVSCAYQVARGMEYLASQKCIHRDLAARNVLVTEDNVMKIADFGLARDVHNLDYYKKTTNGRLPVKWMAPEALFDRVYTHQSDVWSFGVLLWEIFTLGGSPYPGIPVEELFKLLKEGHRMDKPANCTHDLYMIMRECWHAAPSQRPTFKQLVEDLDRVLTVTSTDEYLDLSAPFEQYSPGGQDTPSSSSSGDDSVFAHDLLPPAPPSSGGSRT
Assay: pFGFR3 Functional Cell HTRF Assay (BAF3-TEL-FGFR3 cells)
Settings: 2 hours
Procedure: To measure phosphorylated Fibroblast Growth Factor Receptor 1 and 3 (FGF1 and FGFR3), in house stable cell lines BAF3-TEL-FGFR1 or BAF3-TEL-FGFR3 were maintained in RPMI with 10% FBS and 1 μg/ml puromycin (Gibco/Life Technologies). […] The plates were gently shaken (100 rpm) for 2 minutes at room temperature to mix well and incubated for 2 hours in a single layer at 37° C., 5% CO2. […]
pIC50: −log10 of the molar value.
Below: a set of entries, each annotated with reported pIC50.

CN(C)C(=O)c1ccc(-n2cc(-c3n[nH]c4cnc(N5C6CCC5C(=O)N(C)C6)nc34)cn2)cc1 (stereo not drawn)	> 7.00
CNC(=O)c1ccc(-n2cc(-c3n[nH]c4cnc(N5C6CCC5C(=O)N(C)C6)nc34)cn2)cn1 (stereo not drawn)	6.30 to 7.00
Cn1cc(-c2n[nH]c3cnc(N4C5CCC4c4cn[nH]c4C5)nc23)cn1 (stereo not drawn)	6.30 to 7.00
CC(C)N1CC2CCC(C1=O)N2c1ncc2[nH]nc(-c3cnn(C)c3)c2n1 (stereo not drawn)	6.30 to 7.00
CCn1cc(-c2n[nH]c3cnc(N4C5CCC4C(=O)N(C)C5)nc23)cn1 (stereo not drawn)	> 7.00

For the next question, use this compound.
Data request: Provide measured pIC50 value, entry: CN1CC2CCC(C1=O)N2c1ncc2[nH]nc(-c3cnn(C)c3)c2n1 (stereo not drawn)
Data returned: > 7.00
